target.system: full-length human Mineralocorticoid Receptor (MR) (Homo sapiens)
Construct: host or cells: PathHunter CHO-K1 cells
Sequence (P08235 whole entry): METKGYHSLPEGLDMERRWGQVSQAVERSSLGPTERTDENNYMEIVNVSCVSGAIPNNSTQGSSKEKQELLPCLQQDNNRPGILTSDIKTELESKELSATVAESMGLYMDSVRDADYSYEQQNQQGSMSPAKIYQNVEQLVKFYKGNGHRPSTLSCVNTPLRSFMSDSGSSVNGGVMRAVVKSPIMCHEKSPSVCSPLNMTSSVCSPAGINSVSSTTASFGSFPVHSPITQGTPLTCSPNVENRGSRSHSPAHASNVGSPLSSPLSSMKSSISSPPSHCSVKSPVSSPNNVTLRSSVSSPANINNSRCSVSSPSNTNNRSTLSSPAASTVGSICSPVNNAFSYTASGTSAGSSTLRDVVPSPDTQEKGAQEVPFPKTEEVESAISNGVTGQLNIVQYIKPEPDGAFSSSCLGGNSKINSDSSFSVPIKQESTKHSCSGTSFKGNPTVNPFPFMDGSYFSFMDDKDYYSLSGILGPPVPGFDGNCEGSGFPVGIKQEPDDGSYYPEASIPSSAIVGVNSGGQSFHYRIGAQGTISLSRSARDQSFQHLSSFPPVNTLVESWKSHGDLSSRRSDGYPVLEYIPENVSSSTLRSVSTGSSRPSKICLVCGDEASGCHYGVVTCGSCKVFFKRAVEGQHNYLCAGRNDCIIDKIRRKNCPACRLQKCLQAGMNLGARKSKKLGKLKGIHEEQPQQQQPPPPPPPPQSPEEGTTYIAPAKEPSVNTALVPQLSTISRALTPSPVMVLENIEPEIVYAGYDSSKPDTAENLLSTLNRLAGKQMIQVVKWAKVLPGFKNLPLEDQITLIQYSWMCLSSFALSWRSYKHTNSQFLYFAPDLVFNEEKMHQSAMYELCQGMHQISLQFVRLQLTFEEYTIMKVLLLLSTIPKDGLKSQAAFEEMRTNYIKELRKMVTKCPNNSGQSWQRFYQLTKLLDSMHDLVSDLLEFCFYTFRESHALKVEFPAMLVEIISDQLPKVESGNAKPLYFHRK
assay.name: human MR NH Pro assay (PathHunter Protein:Protein interaction assay), MR antagonist activity
Assay type: cell-based
measurement.context: PathHunter CHO-K1 cells overexpressing human MR; aldosterone about 0.3 nM; 6 hours at 37° C.; luminescence; read-out: Primary Assay IP rating (IP = inflection point for a given dose-response titration curve)
pIC50: −log10 of the molar value.
quantity.name: pIC50

| molecule | result.value |
| --- | --- |
| COC(=O)C(C)(c1ccc(Cl)cc1Cl)n1ccc2c(NS(C)(=O)=O)cccc21 (centres unmarked) [Compound 29] | 5.30 to 6.30 |
| CCC(CCOC)(c1ccc(Cl)cc1)n1ccc2c(NS(C)(=O)=O)cccc21 (centres unmarked) [Compound 165] | > 7.00 |
| CCC(c1ccc(Cl)cc1)(n1ccc2c(NS(C)(=O)=O)cccc21)C(C)(C)O (single isomer, unassigned) [Compound 91] | > 7.00 |
| CCC(CCC#N)(c1ccc(Cl)cc1)n1ncc2c(NS(C)(=O)=O)cccc21 (single isomer, unassigned) [Compound 138] | > 7.00 |
| CCC(CN)(c1ccc(Cl)cc1)n1ccc2c(NS(C)(=O)=O)cccc21 (centres unmarked) [Compound 177] | 6.30 to 7.00 |

**Q:** Retrieve pIC50 measured for CC[C@@](c1ccc(Cl)cc1)(c1nnc(C)[nH]1)n1ccc2c(NS(C)(=O)=O)cccc21 [Compound 65] and print it.
**A:** 6.30 to 7.00

**Q:** Specify pIC50 for CCC(CCOS(C)(=O)=O)(c1ccc(Cl)cc1)n1ccc2c(NS(C)(=O)=O)cccc21 (centres unmarked) [Compound 164] and stop.
**A:** > 7.00

**Q:** Output measured pIC50 for this item: CCC(c1ccc(C(F)(F)F)cc1)(C(C)O)n1ccc2c(NS(C)(=O)=O)cccc21 (single isomer, unassigned) [Compound 114]
**A:** > 7.00

**Q:** Please give measured pIC50 of the following entry: CCC(CC#N)(c1ccc(Cl)cc1)n1ccc2c(NS(C)(=O)=O)cc(F)cc21 (single isomer, unassigned) [Compound 124]
**A:** 6.30 to 7.00

**Q:** Determine from records and report pIC50 for CCC(c1ccc(Cl)cc1Cl)(C(C)O)n1ccc2c(NS(C)(=O)=O)cccc21 (centres unmarked) [Compound 110]
**A:** > 7.00

**Q:** Give a short answer stating reported pIC50 for CCC(C(C)=O)(c1ccc(Cl)cc1)n1ncc2c(NS(C)(=O)=O)cccc21 (single isomer, unassigned) [Compound 100] .
**A:** > 7.00

// data source = patent US8933113B2
